Where do these numbers come from? They come from patent US20240409629A1.

Quick reference: ADCC EC50, Jurkat-CD16a v158-NFAT-luciferase effector cells, NIH-3T3-CLDN18.2 target cells of the listed items.
Biological target: human CLDN18.2 (human)
Test: cell-based or functional assay
Field format: number, assumed nM, no unit text.

Examples with answers:
binder	number
humanized antibody hz40F6-1.4 (antibody, human IgG1, kappa, V domains shown) VH: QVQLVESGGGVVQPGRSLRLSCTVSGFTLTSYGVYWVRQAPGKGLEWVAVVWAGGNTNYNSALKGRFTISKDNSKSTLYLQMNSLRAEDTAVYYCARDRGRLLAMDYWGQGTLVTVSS VL: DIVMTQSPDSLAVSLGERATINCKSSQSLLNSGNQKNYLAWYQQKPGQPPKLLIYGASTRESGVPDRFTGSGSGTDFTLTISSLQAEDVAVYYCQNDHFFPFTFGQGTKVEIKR	0.024
humanized antibody hz40F6-1.1 (antibody, human IgG1, kappa, V domains shown) VH: QVQLVESGGGVVQPGRSLRLSCAASGFTLTSYGVYWVRQAPGKGLEWVAVVWAGGNTNYADSVKGRFTISKDNSKSTLYLQMNSLRAEDTAVYYCARDRGRLLAMDYWGQGTLVTVSS VL: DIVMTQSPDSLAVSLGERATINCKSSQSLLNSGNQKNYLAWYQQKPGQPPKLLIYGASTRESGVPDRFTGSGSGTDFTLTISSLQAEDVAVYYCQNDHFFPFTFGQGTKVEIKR	0.013

Query string: Requested read-out: ADCC EC50, Jurkat-CD16a v158-NFAT-luciferase effector cells, NIH-3T3-CLDN18.2 target cells. Entry: humanized antibody hz40F6-1.3 (antibody, human IgG1, kappa, V domains shown) VH: QVQLVESGGGVVQPGRSLRLSCAASGFTLTSYGVYWVRQAPGKGLEWVAVVWAGGNTNYADALKGRFTISKDNSKSTLYLQMNSLRAEDTAVYYCARDRGRLLAMDYWGQGTLVTVSS VL: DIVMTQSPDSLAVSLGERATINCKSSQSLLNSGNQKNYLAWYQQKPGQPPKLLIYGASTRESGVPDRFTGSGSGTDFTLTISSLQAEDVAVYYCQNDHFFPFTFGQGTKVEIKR
Result string: 0.017
